target: IP6K2-HSP90 binding; construct: other: purified proteins; 250 nM HSP90 from HeLa preincubated with d; assay: In vitro HSP90-IP6K2 binding assay with purified proteins; conditions: purified proteins; 250 nM HSP90 from HeLa preincubated with drug 30 min 37° C., then myc-IP6K2 beads; western blot; read-out: concentration reducing IP6K2-HSP90 binding by 50%
Listed here: items and their measured IC50.
Measurement Type: IC50

- CO[C@@H]1[C@@H](OC(N)=O)[C@@H](O)[C@H](Oc2ccc3c(O)c(NC(=O)c4ccc(O)c(CC=C(C)C)c4)c(=O)oc3c2C)OC1(C)C: ~200 µM
- N.N.[Cl][Pt][Cl] [cisplatin]: 1 to 5 µM
